- assayed target: FAK (Mus musculus, UniProt P34152)
- Construct: endogenous in cells; host or cells: mouse mammary carcinoma 4T1 cells
- Sequence (P34152 whole entry): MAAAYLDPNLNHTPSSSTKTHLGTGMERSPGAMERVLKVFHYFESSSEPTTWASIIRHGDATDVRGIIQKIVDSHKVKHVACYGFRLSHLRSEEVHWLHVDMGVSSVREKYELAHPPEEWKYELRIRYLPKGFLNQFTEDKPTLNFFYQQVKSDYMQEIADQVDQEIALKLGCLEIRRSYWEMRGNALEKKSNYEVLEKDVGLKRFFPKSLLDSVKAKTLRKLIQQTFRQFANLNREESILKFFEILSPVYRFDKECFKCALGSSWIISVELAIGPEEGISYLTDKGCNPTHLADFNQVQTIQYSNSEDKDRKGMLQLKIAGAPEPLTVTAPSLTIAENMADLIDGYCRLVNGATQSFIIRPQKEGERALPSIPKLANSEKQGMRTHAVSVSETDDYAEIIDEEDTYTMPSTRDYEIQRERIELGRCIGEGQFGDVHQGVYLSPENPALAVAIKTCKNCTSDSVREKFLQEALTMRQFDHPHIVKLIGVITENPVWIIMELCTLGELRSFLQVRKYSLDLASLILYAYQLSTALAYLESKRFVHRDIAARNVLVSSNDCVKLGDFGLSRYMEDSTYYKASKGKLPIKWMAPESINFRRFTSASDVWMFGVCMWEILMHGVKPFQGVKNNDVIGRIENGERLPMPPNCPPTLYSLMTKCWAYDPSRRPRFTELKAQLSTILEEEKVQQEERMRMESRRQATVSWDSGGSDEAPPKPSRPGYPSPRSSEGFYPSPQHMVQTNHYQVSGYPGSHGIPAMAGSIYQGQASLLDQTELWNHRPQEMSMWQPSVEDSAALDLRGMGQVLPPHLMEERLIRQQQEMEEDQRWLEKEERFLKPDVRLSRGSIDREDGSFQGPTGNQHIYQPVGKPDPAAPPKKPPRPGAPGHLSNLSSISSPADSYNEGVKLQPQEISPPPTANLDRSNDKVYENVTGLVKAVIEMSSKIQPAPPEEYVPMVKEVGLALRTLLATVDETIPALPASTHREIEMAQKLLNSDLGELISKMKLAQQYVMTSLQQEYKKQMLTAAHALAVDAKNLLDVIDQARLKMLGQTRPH
- assay comment: Phosphorylation levels of FAK at Tyr397 (sandwich ELISA) in 4T1 cells
- Type: cell-based
- assay setup: 1 h incubation, read-out: IC50, 50% reduction of phosphorylation level of FAK (Tyr397)
- Protocol: Phosphorylation levels of FAK at Tyr397 are quantified by the sandwich ELISA. […] After centrifugation, the supernatants are subjected to a sandwich ELISA to quantify the phosphorylated FAK and total FAK. […] Absorbance at 405 nm is measured after 20 min incubation at room temperature. […]
measure: IC50 (nM)
Answers are plain numbers, in nM.

compound: CNS(=O)(=O)c1ccccc1Nc1nc(Nc2ccc3cn[nH]c3c2)ncc1Br
measure: IC50
measured number: 43

Kindly consider the entry below.
Query: What IC50 value was documented for this compound, `CNS(=O)(=O)c1cc(F)ccc1Nc1nc(Nc2cc(OC)c(OC)c(OC)c2)ncc1Br` ?
Response: 440

Where do these numbers come from? They come from patent US8431589B2.
